# Measured on: T1, purified human glycophorin A protein (Sigma, cat # G5017) (human, UniProt P02724 20-150)
# T1 construct: mature; also called Sigma hGPA; Sigma GPA
# T1 sequence (looked up): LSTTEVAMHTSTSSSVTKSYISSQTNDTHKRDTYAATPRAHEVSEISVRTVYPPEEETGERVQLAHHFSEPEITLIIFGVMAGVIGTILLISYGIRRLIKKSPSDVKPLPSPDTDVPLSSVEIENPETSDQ
# Procedure details: ELISA, native hGPA
binders and their reported binding by ELISA relative to parental

| Binder | Meas value |
| --- | --- |
| TPP-5324 (Fab, V domains shown, also called VH: (Y57S)) VH: EVQLVQSGAEVKKPGASVKVSCKASGYTFTTYTIHWVRQAPGQGLEWIGYINPSSDSTRYNPKFKDRVTLTTDKSTSTAYMELRSLRSDDTAVYYCQTGTRDYWGQGTTVTVSS VL: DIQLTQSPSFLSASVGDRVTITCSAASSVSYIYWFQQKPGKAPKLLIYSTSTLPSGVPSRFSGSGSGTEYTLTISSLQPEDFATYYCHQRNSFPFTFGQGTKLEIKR | 0.53 |

Next binder, please.
q: Name the reported binding by ELISA relative to parental value associated with the binder TPP-5331 (Fab, V domains shown, also called VH: (T72R)) VH: EVQLVQSGAEVKKPGASVKVSCKASGYTFTTYTIHWVRQAPGQGLEWIGYINPSSDYTRYNPKFKDRVTLTRDKSTSTAYMELRSLRSDDTAVYYCQTGTRDYWGQGTTVTVSS VL: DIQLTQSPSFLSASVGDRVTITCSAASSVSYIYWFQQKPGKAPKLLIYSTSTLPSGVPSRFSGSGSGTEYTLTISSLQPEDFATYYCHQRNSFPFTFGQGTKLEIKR
a: 1.11
